test system: wheat; assay: Test C postemergence; assay type: in vivo, Triticum aestivum; details: Postemergence, 500 g ai/ha, 10 days, visual 0 to 100 scale (0 no effect, 100 complete control)
Values of Plant response rating, Wheat greater than or equal to 30 map to Y; values below map to N.

- chem-smiles: "COc1cc(-n2cnc(C(C)C)n2)cc(C(=O)N2C[C@H](C)Oc3c(Cl)cccc32)c1OC"
  label: "N"
- chem-smiles: "Cc1ccc(-n2cnc(C3(C(F)(F)F)CC3)n2)cc1C(=O)N1C[C@H](C)Oc2c(Cl)cccc21"
  label: "N"
- chem-smiles: "COc1cc(C(=O)N2C[C@H](C)Oc3c(Cl)cccc32)cc(-n2cnc(C(C)C)n2)c1"
  label: "Y"
- chem-smiles: "COc1cc(C(=O)N2C[C@H](C)Oc3c(Cl)cccc32)cc(-n2cnc(C(C)(C)C)n2)c1"
  label: "N"
- chem-smiles: "Cc1ccc(-n2cnc(C(C)C)n2)cc1C(=O)N1C[C@H](C)Oc2c(F)cccc21"
  label: "Y"
